We begin with pIC50 values for Histone deacetylase 4 (Homo sapiens, UniProt P56524), as collected from the published literature.
pIC50: −log10 of the molar value.

Worked cases, answers included:
- O=C(CCCCCONC(=O)c1nc(-c2ccccc2F)cs1)NO: < 4.00
- O=C(CCCCCCn1c2cc3c(cc2c2ncc4ccccc4c21)OCO3)NO: < 5.30
- Cc1ccc(-c2csc(C(=O)NOCCCCCC(=O)NO)n2)cc1: < 4.00
- CCCNNC(=O)c1ccc(Nc2nccc(N(C)c3ccc4c(C)n(C)nc4c3)n2)cc1: < 5.00
- CC1(C)NC(=O)[C@H](CCCCCC(=O)[C@H](O)CO)NC(=O)[C@H]2CCCN2C(=O)[C@H](Cc2ccccc2)NC1=O: 3.00

Which pIC50 is reported with Histone deacetylase 4 (Homo sapiens, UniProt P56524) for this entry: COc1cccc(-c2csc(C(=O)NOCCCCCC(=O)NO)n2)c1 ?
< 4.00

Queued: Cc1c2ccc(Nc3ccnc(Nc4ccc(OCCCCCCC(=O)NO)cc4)n3)cc2nn1C
< 5.04

Queued: O=C(CCCCCONC(=O)c1nc(-c2cccs2)cs1)NO
< 4.00

Queued: O=C(CCCCCONC(=O)c1nc(-c2ccccc2)cs1)NO
< 4.00

Queued: COc1cc(OC)c(/C=C/S(=O)(=O)Cc2ccc(OC)c(NCC(=O)O)c2)c(OC)c1
< 5.00
